The reported measurements were obtained from ChEMBL document CHEMBL2177021.

# test name: Cytotoxicity against human HL60R cells overexpressing Pgp incubated for 72 hrs by MTS assay
# IC50 values compiled below
property name: IC50 (nM)

{"mol": "COc1cc(OC)c2c(c1)O[C@@]1(c3ccc(Br)cc3)[C@H](c3cccc(F)c3)C[C@H](NC=O)[C@@]21O", "property name": "IC50", "value measured": 1.4}
{"mol": "COc1cc(OC)c2c(c1)O[C@@]1(c3ccc(Br)cc3)[C@H](c3cccc(F)c3)C[C@@H](O)[C@@]21O", "property name": "IC50", "value measured": 3.1}
{"mol": "COc1cc(OC)c2c(c1)O[C@@]1(c3ccc(Br)cc3)[C@H](c3cccc(F)c3)[C@@H](C(N)=O)[C@@H](O)[C@@]21O", "property name": "IC50", "value measured": 3.3}
{"mol": "COc1cc(OC)c2c(c1)O[C@@]1(c3ccc(Br)cc3)[C@H](c3cccc(F)c3)C[C@H](NC(=O)CO)[C@@]21O", "property name": "IC50", "value measured": 42}
